- target-under-test: EPHB2 (human) (UniProt P29323)
- Sequence (P29323 whole entry, looked up): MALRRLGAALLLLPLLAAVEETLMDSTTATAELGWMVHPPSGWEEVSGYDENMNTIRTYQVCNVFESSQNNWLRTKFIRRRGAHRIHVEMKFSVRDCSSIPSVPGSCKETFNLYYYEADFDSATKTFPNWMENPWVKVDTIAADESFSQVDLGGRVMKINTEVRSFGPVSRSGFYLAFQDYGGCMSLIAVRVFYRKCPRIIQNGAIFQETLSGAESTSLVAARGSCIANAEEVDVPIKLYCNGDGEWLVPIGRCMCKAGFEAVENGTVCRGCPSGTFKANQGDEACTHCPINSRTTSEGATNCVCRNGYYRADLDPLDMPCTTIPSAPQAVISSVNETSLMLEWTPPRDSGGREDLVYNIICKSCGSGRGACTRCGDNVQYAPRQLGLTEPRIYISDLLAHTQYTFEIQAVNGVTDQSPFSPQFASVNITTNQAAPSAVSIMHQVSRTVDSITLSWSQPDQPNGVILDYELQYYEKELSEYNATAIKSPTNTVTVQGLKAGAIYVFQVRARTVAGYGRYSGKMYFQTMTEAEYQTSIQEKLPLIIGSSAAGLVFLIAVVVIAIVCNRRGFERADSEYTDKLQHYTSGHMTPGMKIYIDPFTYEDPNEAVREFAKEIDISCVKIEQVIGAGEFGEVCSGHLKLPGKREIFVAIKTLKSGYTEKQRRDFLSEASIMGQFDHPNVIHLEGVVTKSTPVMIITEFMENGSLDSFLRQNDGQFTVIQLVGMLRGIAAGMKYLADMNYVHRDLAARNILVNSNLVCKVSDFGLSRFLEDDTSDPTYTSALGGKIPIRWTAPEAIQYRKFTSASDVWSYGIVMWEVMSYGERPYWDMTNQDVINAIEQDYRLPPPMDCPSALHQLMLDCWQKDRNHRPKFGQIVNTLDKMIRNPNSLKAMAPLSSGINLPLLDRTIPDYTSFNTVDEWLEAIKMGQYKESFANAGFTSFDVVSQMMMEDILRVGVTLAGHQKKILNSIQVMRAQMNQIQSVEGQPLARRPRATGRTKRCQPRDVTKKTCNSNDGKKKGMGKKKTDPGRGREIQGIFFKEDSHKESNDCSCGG
- test-name: radiometric filter-binding kinase assay, Kinase HotSpot
- applied-conditions: compound 0.5 µM; ATP 10 µM
# strict inequality: residual activity < 90% yields satisfied, everything else yields not satisfied

compound=CC[n+]1c(/C=C/N(C)c2ccccc2)n(-c2ccccc2)c2ccc(-c3nc4ccccc4s3)cc21 assigned_label="not satisfied"
compound=c1ccc(-c2n[nH]c3c2oc2ccccc23)cc1 assigned_label=satisfied
compound=O=C1NC(=O)c2c1c1c3ccccc3n3c1c1c2c2ccccc2n1C1CCC3O1 assigned_label="not satisfied"
compound=N#CC(C#N)=C(N)/C(C#N)=C/c1ccc(O)cc1 assigned_label="not satisfied"
compound=CCN(CC)CCNC(=O)c1c(C)[nH]c(/C=C2\C(=O)Nc3ccc(F)cc32)c1C assigned_label=satisfied
compound=CCC(=O)Nc1ccc2ncnc(Nc3cccc(Br)c3)c2c1 assigned_label="not satisfied"
compound=CCN(CC)C(=O)c1ccc(Nc2nc(OCC3CCCCC3)c3nc[nH]c3n2)cc1 assigned_label="not satisfied"
compound=Nc1ccc2ncnc(NCCc3ccc(Oc4ccccc4)cc3)c2c1 assigned_label="not satisfied"
compound=CC#CC(=O)Nc1cc2c(Nc3ccc(F)c(Cl)c3)ncnc2cn1 assigned_label=satisfied
compound=O=S(=O)(c1cccc2cnccc12)N1CCCNCC1 assigned_label=satisfied
compound=CNC(=O)c1cc(Oc2ccc(NC(=O)Nc3ccc(Cl)c(C(F)(F)F)c3)cc2)ccn1 assigned_label="not satisfied"
compound=O=C(Nc1cccc(Nc2nccc(Nc3cccc(C(F)(F)F)c3)n2)c1)C1CC1 assigned_label="not satisfied"
compound=CC(C)N(CCC(=O)c1ccc2ccccc2c1)Cc1ccccc1 assigned_label="not satisfied"
compound=O=C1NC(=O)C(c2cn(CCCn3ccnc3)c3ccccc23)=C1Nc1ccccc1 assigned_label="not satisfied"
compound=CCOC(=O)c1c(C)[nH]c(/C=C2\C(=O)Nc3ccccc32)c1C assigned_label="not satisfied"
compound="CO[C@H]1CC2CC[C@@H](C)[C@@](O)(O2)C(=O)C(=O)N2CCCC[C@H]2C(=O)OC([C@H](C)C[C@@H]2CC[C@@H](O)[C@H](OC)C2)CC(=O)[C@H](C)/C=C(\\C)[C@@H](O)[C@@H](OC)C(=O)[C@H](C)C[C@H](C)/C=C/C=C/C=C/1C (some centres not stated)" assigned_label="not satisfied"
compound=Cc1ccc(S(=O)(=O)/C=C/C#N)cc1 assigned_label="not satisfied"
compound=O=C1NC(=O)/C(=C/c2ccc3c(c2)OC(F)(F)O3)S1 assigned_label="not satisfied"
compound=CCCC(=O)Oc1ccc2[nH]c(C(=O)c3cc4ccccc4[nH]3)cc2c1 assigned_label="not satisfied"
compound=Cc1nc(Nc2ncc(C(=O)Nc3c(C)cccc3Cl)s2)cc(N2CCN(CCO)CC2)n1 assigned_label=satisfied
compound=Cc1ccc(NC2=CC(=O)c3sc(C)nc3C2=O)cc1 assigned_label="not satisfied"
compound=COc1ccc2c(c[n+](C)c3c4cc5c(cc4ccc23)OCO5)c1OC assigned_label="not satisfied"
compound=O=c1cc(N2CCOCC2)oc2c1ccc1ccccc12 assigned_label=satisfied
compound=N#C/C(=C(/N)Sc1ccc(N)cc1)c1ccccc1C(F)(F)F assigned_label="not satisfied"
compound=CC(=O)c1ccc(N2CCOCC2)cc1O assigned_label=satisfied
compound=Nc1cccc(-c2cc3c(Oc4cccc(O)c4)ncnc3[nH]2)c1 assigned_label=satisfied
compound=COc1cc2ncnc(Nc3cccc(Cl)c3)c2cc1OC assigned_label="not satisfied"
compound=c1ccc(-c2n[nH]cc2-c2ccnc3ccccc23)nc1 assigned_label="not satisfied"

###

- target-under-test: MAP3K7 TAB1 (human) (UniProt O43318+Q15750)
- Sequence (O43318 whole entry, looked up): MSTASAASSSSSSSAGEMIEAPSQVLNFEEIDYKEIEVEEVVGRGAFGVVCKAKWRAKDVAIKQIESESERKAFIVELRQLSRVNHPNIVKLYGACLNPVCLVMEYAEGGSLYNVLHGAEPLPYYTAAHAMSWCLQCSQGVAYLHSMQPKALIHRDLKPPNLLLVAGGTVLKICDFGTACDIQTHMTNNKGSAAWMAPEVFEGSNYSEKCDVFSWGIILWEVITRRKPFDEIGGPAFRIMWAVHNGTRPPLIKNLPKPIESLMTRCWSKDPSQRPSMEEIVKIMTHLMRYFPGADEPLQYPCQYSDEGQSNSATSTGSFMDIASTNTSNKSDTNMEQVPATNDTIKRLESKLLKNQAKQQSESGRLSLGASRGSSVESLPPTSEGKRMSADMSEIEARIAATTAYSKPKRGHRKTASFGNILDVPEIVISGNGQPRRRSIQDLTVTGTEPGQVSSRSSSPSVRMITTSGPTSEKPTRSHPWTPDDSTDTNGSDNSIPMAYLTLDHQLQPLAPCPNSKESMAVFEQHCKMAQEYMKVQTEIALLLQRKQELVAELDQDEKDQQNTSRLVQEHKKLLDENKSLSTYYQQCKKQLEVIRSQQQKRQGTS
- Sequence (Q15750 whole entry, looked up): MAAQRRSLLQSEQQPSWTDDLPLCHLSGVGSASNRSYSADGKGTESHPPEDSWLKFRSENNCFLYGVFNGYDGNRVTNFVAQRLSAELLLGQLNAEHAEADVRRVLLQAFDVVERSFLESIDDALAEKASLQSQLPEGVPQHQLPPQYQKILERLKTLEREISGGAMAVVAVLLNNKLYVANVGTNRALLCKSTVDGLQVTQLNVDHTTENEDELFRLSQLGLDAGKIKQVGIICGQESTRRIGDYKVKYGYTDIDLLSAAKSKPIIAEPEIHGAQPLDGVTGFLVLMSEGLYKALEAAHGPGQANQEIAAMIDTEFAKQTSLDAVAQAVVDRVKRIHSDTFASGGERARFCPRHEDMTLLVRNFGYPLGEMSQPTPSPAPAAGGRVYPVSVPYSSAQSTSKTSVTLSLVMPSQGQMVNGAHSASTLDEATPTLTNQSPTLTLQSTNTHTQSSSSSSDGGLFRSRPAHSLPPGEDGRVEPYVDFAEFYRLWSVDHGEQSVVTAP
- test-name: radiometric filter-binding kinase assay, Kinase HotSpot
- applied-conditions: compound 0.5 µM; ATP 10 µM
Returns one of criterion met or criterion not met; criterion met when residual activity is >= 90%.

smiles_representation=COc1ccc(COc2ccc(Cc3cnc(N)nc3N)cc2OC)cc1 assigned_label="criterion met"
smiles_representation=O=C1NC(=O)/C(=C/c2ccc3c(c2)OC(F)(F)O3)S1 assigned_label="criterion met"
smiles_representation=c1ccc(-c2n[nH]c3c2oc2ccccc23)cc1 assigned_label="criterion met"
smiles_representation=N#C/C(=C(/N)Sc1ccc(N)cc1)c1ccccc1C(F)(F)F assigned_label="criterion met"
smiles_representation=CCOC(=O)c1c(C)[nH]c(/C=C2\C(=O)Nc3ccccc32)c1C assigned_label="criterion not met"
smiles_representation=CC(C)N(CCC(=O)c1ccc2ccccc2c1)Cc1ccccc1 assigned_label="criterion met"
smiles_representation=Cc1nc(Nc2ncc(C(=O)Nc3c(C)cccc3Cl)s2)cc(N2CCN(CCO)CC2)n1 assigned_label="criterion not met"
smiles_representation=Cc1ccc(S(=O)(=O)/C=C/C#N)cc1 assigned_label="criterion met"
smiles_representation=Oc1cccc(-c2nc(N3CCOCC3)c3oc4ncccc4c3n2)c1 assigned_label="criterion met"
smiles_representation=CCN(CC)C(=O)c1ccc(Nc2nc(OCC3CCCCC3)c3nc[nH]c3n2)cc1 assigned_label="criterion not met"
smiles_representation=CC[n+]1c(/C=C/N(C)c2ccccc2)n(-c2ccccc2)c2ccc(-c3nc4ccccc4s3)cc21 assigned_label="criterion met"

###

- target-under-test: ROCK1 (human)
- test-name: radiometric filter-binding kinase assay, Kinase HotSpot
- applied-conditions: compound 0.5 µM; ATP 10 µM
Entries and their measured residual activity follow.
result-type: residual activity (%)

smiles_representation=c1ccc(-c2n[nH]c3c2oc2ccccc23)cc1 result_type="residual activity" obs_value=99.1
smiles_representation=CCOC(=O)c1c(C)[nH]c(/C=C2\C(=O)Nc3ccccc32)c1C result_type="residual activity" obs_value=99.1
smiles_representation=CCN(CC)CCNC(=O)c1c(C)[nH]c(/C=C2\C(=O)Nc3ccc(F)cc32)c1C result_type="residual activity" obs_value=99.7
smiles_representation=Nc1ncnc2c1c(-c1ccc(Oc3ccccc3)cc1)cn2C1CCCC1 result_type="residual activity" obs_value=106
smiles_representation=CC[n+]1c(/C=C/N(C)c2ccccc2)n(-c2ccccc2)c2ccc(-c3nc4ccccc4s3)cc21 result_type="residual activity" obs_value=98.1
smiles_representation=O=C1NC(=O)c2c1c1c3ccccc3n3c1c1c2c2ccccc2n1C1CCC3O1 result_type="residual activity" obs_value=88.7
smiles_representation=CCN(CC)C(=O)c1ccc(Nc2nc(OCC3CCCCC3)c3nc[nH]c3n2)cc1 result_type="residual activity" obs_value=54.9
smiles_representation=CCCC(=O)Oc1ccc2[nH]c(C(=O)c3cc4ccccc4[nH]3)cc2c1 result_type="residual activity" obs_value=105
smiles_representation=CCN(CC)CCNC(=O)c1c(C)[nH]c(/C=C2\C(=O)Nc3ccc(Cl)cc32)c1C result_type="residual activity" obs_value=89.7
smiles_representation=Nc1ncnc2[nH]nc(Nc3ccc(F)cc3)c12 result_type="residual activity" obs_value=100
smiles_representation=CNc1cc2c(Nc3cccc(Br)c3)ncnc2cn1 result_type="residual activity" obs_value=98.8
smiles_representation=CNC(=O)c1cc(Oc2ccc(NC(=O)Nc3ccc(Cl)c(C(F)(F)F)c3)cc2)ccn1 result_type="residual activity" obs_value=102
smiles_representation=Oc1cccc(-c2nc(N3CCOCC3)c3oc4ncccc4c3n2)c1 result_type="residual activity" obs_value=94.9
smiles_representation=O=C1NC(=O)C(c2cn(CCCn3ccnc3)c3ccccc23)=C1Nc1ccccc1 result_type="residual activity" obs_value=99.2
smiles_representation=COc1ccc(COc2ccc(Cc3cnc(N)nc3N)cc2OC)cc1 result_type="residual activity" obs_value=100
smiles_representation=O=C1NC(=O)/C(=C/c2ccc3c(c2)OC(F)(F)O3)S1 result_type="residual activity" obs_value=93.7
smiles_representation=CC(C)N(CCC(=O)c1ccc2ccccc2c1)Cc1ccccc1 result_type="residual activity" obs_value=98.6
smiles_representation=Nc1cccc(-c2cc3c(Oc4cccc(O)c4)ncnc3[nH]2)c1 result_type="residual activity" obs_value=94.1
smiles_representation=O=S(=O)(c1cccc2cnccc12)N1CCCNCC1 result_type="residual activity" obs_value=60.2
smiles_representation=CCC(=O)Nc1ccc2ncnc(Nc3cccc(Br)c3)c2c1 result_type="residual activity" obs_value=99.5
smiles_representation=N#CC(C#N)=C(N)/C(C#N)=C/c1ccc(O)cc1 result_type="residual activity" obs_value=100
smiles_representation=O=C1Nc2ccc(Cl)cc2/C1=C/c1cc(Cl)c(O)c(Cl)c1 result_type="residual activity" obs_value=93.2

###

- target-under-test: BLK (human) (UniProt P51451)
- Sequence (P51451 whole entry, looked up): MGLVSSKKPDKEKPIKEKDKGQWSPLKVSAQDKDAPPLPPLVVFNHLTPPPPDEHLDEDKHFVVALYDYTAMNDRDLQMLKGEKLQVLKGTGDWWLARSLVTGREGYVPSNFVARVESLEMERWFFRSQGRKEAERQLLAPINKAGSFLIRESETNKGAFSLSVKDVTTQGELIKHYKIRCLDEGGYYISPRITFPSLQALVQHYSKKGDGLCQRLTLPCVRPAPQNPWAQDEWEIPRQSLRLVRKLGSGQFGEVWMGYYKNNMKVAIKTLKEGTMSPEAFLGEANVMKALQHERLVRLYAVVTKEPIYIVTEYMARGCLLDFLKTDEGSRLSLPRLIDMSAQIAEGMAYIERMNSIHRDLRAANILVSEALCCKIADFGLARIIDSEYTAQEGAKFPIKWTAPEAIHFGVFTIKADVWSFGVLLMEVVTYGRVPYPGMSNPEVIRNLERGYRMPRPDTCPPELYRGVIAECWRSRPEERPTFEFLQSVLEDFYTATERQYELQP
- test-name: radiometric filter-binding kinase assay, Kinase HotSpot
- applied-conditions: compound 0.5 µM; ATP 10 µM
Entries and their measured residual activity follow.
result-type: residual activity (%)

smiles_representation=CNC(=O)c1cc(Oc2ccc(NC(=O)Nc3ccc(Cl)c(C(F)(F)F)c3)cc2)ccn1 result_type="residual activity" obs_value=99.1
smiles_representation=CNc1cc2c(Nc3cccc(Br)c3)ncnc2cn1 result_type="residual activity" obs_value=103
smiles_representation=CC(=O)c1ccc(N2CCOCC2)cc1O result_type="residual activity" obs_value=102
smiles_representation=N#C/C(=C(/N)Sc1ccc(N)cc1)c1ccccc1C(F)(F)F result_type="residual activity" obs_value=111
smiles_representation=Cc1[nH]c(/C=C2\C(=O)Nc3ccc(S(=O)(=O)N(C)c4cccc(Cl)c4)cc32)c(C)c1C(=O)N1CCN(C)CC1 result_type="residual activity" obs_value=51.7
